tested-system: T1, hGCGR-mmh (human)
T1 construct: also called REGN547; monovalent hGCGR
T1 chain: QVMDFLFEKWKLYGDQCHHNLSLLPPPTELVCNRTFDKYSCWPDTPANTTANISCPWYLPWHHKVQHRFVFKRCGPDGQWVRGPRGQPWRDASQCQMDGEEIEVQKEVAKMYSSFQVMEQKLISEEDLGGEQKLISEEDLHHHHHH
assay-summary: SPR Biacore T100, 25C, mAb captured, antigen flowed
Protocol: Measurements were conducted on a T100 Biacore instrument. […] Binding dissociation equilibrium constants and dissociative half-lives were calculated from the kinetic rate constants as: KD=kd/kₐ; t_{1/2}=(In2/kd).
pKd: −log10 of the molar value.
Short version: pKd at least 9 is fulfilled, less is not fulfilled.

(Q) Quick check: does H4H1331P (antibody, V domains shown, Fully human anti-GCGR antibody; the controls are called isotype-matched hIgG4) VH: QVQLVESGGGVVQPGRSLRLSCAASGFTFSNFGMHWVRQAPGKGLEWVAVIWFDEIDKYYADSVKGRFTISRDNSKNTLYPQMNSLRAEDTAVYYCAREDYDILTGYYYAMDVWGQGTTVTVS VL: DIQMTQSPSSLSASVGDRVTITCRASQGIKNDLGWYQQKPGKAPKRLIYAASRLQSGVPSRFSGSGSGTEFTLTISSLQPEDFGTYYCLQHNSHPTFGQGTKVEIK have pKd greater than or equal to 9?
(A) fulfilled

(Q) // inclusive: pKd at least 9? input: H4H1321P (antibody, V domains shown, Fully human anti-GCGR antibody; the controls are called isotype-matched hIgG4) VH: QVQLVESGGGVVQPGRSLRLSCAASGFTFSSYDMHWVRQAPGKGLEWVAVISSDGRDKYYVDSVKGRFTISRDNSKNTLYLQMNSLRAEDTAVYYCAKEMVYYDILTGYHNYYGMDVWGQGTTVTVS VL: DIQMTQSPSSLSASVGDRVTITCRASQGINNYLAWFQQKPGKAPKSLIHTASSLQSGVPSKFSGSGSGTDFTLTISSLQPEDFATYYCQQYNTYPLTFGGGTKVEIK
(A) not fulfilled

(Q) Assess whether reported pKd for H4H1327P (antibody, V domains shown, also called anti-GCGR (hIgG4) antibody designated H4H1327P) VH: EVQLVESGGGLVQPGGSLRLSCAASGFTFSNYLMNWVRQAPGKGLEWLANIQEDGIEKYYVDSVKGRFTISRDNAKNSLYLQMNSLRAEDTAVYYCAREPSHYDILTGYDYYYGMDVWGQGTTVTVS VL: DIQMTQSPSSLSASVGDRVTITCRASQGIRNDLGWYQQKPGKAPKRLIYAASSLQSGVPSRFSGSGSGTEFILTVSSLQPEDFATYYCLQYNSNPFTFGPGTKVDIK sits at 9 or higher.
(A) fulfilled

(Q) Record H4H1328P (antibody, V domains shown, Fully human anti-GCGR antibody; the controls are called isotype-matched hIgG4) VH: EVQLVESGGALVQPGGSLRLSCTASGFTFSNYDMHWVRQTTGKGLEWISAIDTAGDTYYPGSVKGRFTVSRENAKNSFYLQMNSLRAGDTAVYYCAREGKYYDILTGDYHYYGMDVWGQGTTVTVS VL: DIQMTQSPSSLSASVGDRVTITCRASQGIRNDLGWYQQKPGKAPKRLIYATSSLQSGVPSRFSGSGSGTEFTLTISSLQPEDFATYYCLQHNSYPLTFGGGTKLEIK ; criterion: pKd no lower than 9. Met?
(A) not fulfilled

(Q) Check the entry H4H1765N (antibody, V domains shown, Anti-GCGR antibody from hybridoma; the controls are called isotype-matched hIgG4) VH: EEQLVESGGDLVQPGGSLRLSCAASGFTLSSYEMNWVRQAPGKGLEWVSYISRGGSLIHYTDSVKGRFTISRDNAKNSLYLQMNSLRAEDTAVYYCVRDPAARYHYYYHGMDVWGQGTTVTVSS VL: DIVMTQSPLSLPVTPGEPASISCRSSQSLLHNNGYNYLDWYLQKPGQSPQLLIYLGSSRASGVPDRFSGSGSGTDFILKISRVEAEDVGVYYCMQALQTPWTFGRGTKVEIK : does pKd equal or exceed 9?
(A) fulfilled
